- tested-target: Heat shock factor protein 1 (Mus musculus, UniProt P38532)
- Sequence (P38532 whole entry): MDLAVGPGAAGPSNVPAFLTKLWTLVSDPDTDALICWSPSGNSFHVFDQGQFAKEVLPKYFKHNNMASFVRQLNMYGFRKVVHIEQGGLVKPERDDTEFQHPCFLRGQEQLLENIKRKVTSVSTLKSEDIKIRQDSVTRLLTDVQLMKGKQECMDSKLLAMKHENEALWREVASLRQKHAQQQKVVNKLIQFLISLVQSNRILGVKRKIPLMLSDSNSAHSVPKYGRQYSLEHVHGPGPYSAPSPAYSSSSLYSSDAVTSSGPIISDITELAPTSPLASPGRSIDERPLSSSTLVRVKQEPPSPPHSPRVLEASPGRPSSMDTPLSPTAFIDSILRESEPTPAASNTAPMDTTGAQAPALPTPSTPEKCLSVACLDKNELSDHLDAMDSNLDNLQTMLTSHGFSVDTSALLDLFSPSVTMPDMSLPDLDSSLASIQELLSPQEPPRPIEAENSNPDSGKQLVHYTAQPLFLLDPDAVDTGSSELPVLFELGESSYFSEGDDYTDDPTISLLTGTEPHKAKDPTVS
- assay-method-text: enhancement of HSF1-driven luciferase signal – cell-based, NIH3T3, luminescence, dose retest, confirmation (AID 435004);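 note: stress induced by proteasome inhibitor MG132 added 30 min after compound; luciferase reporter driven by HSF1 response element in NIH3T3 cells; actives raise luminescence as potentiators of the MG132 stress response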
- Type: functional
Calls of active or inactive are those of the source. Cut-off read from the data, not from the text of the source: actives have a measured EC50 and inactives only a lower limit.
Known EC50 of a selection of compounds

compound: Cn1c(=O)c2c(nc(N/N=C/c3ccc(OC(=O)c4ccco4)cc3)n2Cc2ccc(F)cc2)n(C)c1=O
EC50: 3.74 µM (active)
//
compound: Clc1ccc(OCCn2c(-c3ccco3)nc3ccccc32)cc1
EC50: 12 µM (active)
//
compound: Cc1nc(SCCOc2ccc(F)cc2)c2ccccc2n1
EC50: 38.7 µM (active)
//
compound: Oc1c(C(c2ccccn2)N2CCOCC2)ccc2cccnc12 (stereo unspecified)
EC50: 74.8 µM (active)
//
compound: CCOC(=O)c1c(C)[nH]c(C)c1S(=O)(=O)N1CCN(c2ccc(F)cc2)CC1
EC50: > 260 µM (inactive)
//
compound: COc1ccc(NS(=O)(=O)c2cccc(C(=O)N(C)Cc3ccc(SC)cc3)c2)cc1
EC50: > 260 µM (inactive)
//
compound: COc1cccc(CNC(=O)Cn2nc(C)c([N+](=O)[O-])c2C)c1
EC50: > 260 µM (inactive)
//
compound: O=C(O)c1csc(N/N=C/c2ccc(Br)cc2)n1
EC50: > 260 µM (inactive)
//
compound: O=C1C2CC=CCC2C(=O)N1Cc1nnc(-c2ccc(Cl)cc2)o1 (stereo unspecified)
EC50: 39.1 µM (active)
//
compound: OC[C@@H](O)C1OC2N=C(S)OC2C1O (stereo partly specified)
EC50: > 260 µM (inactive)
//
compound: O=C(N/N=C/c1ccncc1)c1cc2ccccc2cc1O
EC50: 106 µM (active)
